B1: FUT8 (parent)
chain: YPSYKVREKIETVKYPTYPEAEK

- Variants of: B1
- ASSAY_NOTES: protein stability index of a GFP-peptide fusion (GPS, HEK-293T) (PSI 1-6); higher = more stable;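 further: lentivirally expressed fusions sorted by FACS into six bins by GFP to DsRed ratio, PSI derived from sequencing read proportions per bin multiplied by bin number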
- EXPERIMENTAL_PARAMETERS: c terminus: native
# maps each entry to its protein stability index
MEASURE: protein stability index

chain=YPSYKVREKIETRKYPTYPEAEK observed_value=4.34
chain=YPSHKVREKIETVKYPTYPEAEK observed_value=4.93
chain=YPSYKVREKIETVKYITYPEAEK observed_value=3.65
chain=YPSYKVREKIETVKYPTYPEASK observed_value=4.04
chain=YPSYKVREKIETAKYPTYPEAEK observed_value=4.7
chain=YPSYKVREKIETVKYPTYPEAKK observed_value=4.54
chain=YPSYKVREYIETVKYPTYPEAEK observed_value=2.56
chain=YPSYKVREKVETVKYPTYPEAEK observed_value=4.46
chain=YPSYKVREKIETVKYPTYPEAEE observed_value=1.93
chain=YPSYKVKEKIETVKYPTYPEAEK observed_value=4.16
chain=YPSYKVREKIETVKYPTYPEGEK observed_value=4.29
